# credit: PubChem BioAssay (NCI)

# Test system: OVCAR-5 ovarian
# test-summary: NCI tumour cell line growth inhibition, 48 h
Answer each item with its documented TGI.

Worked set:
compound: CCOC(=O)Cc1ccc(Nc2nc3cc(C(F)(F)F)ccc3nc2C(=O)OCC)cc1
measured-value: > 100 µM

compound: COc1ccc(-c2coc3ncnc(N)c23)cc1
measured-value: > 25 µM

compound: N#Cc1c(C#N)c(-c2cccc([N+](=O)[O-])c2)n(-c2ccccc2)c1N
measured-value: > 100 µM

compound: N#CN=Nc1cc(Cl)c(N=NC#N)cc1Cl
measured-value: > 100 µM

compound: C#C[C@@]1(O)[C@@H](CO)O[C@@H](n2cc(Cl)c3c(N)ncnc32)[C@@H]1O
measured-value: > 84.2 µM

The following compounds each have a reported value; give each one's TGI.
1. CCCCCCCCCCCCCCCCC1=CC(=O)C=C(OC)C1=O
2. COC(=O)c1cc(NC2OCC(OC(C)=O)C(OC(C)=O)C2OC(C)=O)nc(SC)c1C(=O)OC (configuration not stated)

Reply:
1. > 100 µM
2. > 100 µM

The following compounds each have a reported value; give each one's TGI.
1. CCCSc1cc(Cl)c(C)cc1S(=O)(=O)n1cc[nH]c1=O
2. COC(=O)CCc1ccc2c(c1)CCC2
3. CC(=O)O[C@H](C[C@H](C(C)C)N(C)C(=O)[C@@H](NC(=O)[C@H]1CCCCN1C)C(C)C)c1nc(C(=O)N[C@@H](Cc2ccccc2)C[C@H](C)C(=O)O)c(C)s1
4. N=c1nc(N)c2cc3c(N)nc(=N)c3cc12
5. COc1ccc2[nH]c3c4c(c5cc(C(C)(C)C)ccc5c3c2c1)C(=O)N(c1ccccc1)C4=O
6. CC1CCCOc2ccc(cc2)C=Nc2ccc(cc2)CCc2ccc(cc2)N=Cc2ccc(cc2)OCCC1 (configuration not stated)
7. CCCCCCCCN(CCCCCCCC)C(=N)c1ccnc2ccccc12

Reply:
["> 100 µM", "> 100 µM", "> 25 µM", "73.9 µM", "> 100 µM", "> 100 µM", "3.05 µM"]

The following compounds each have a reported value; give each one's TGI.
1. O=C(O)CN1CCNCCN(CC(=O)O)CC1
2. COc1cccc(-c2nn(-c3ccccc3)cc2-c2ccnc(NCCNS(=O)(=O)c3ccc(C(F)(F)F)cc3)c2)c1

Reply:
["> 100 µM", "> 100 µM"]

====

# Test system: COLO 205 colon
# test-summary: NCI tumour cell line growth inhibition, 48 h
Returns one of met or not met; met when TGI is >= 4 µM.

Use the examples below as a reference point.
compound: O=C(NNC(=S)Nc1ccccc1)C12CC3CC(CC(C3)C1)C2
group-label: met

compound: Nc1ncc(-c2cnn(C3CCNCC3)c2)cc1-c1nc2ccccc2o1
group-label: not met

compound: Nn1c(CCCl)nc2c(Br)cc(Br)cc2c1=O
group-label: met

Consider the additional compound presented here.
Task item: In plain terms: is recorded TGI at least 4 µM for O=c1[nH]cnc2c(C3OC(CO)C(O)C3O)[nH]nc12 (stereo unspecified) ?
Reply: met

====

# System: EKVX NSCLC
# test-summary: NCI tumour cell line growth inhibition, 48 h
measured-attribute: TGI (µM)
Numbers only, in µM.

chem-smiles: O=c1c(O)c(-c2ccc(O)c(O)c2)oc2cc(O)ccc12
TGI, µM: 65.8

The following compounds each have a reported value; give each one's TGI.
1. Nc1ncc(-c2cnn(C3CCNCC3)c2)cc1-c1nc2ccccc2o1
2. C[C@H](c1ccc(Cl)cc1N)N1C(=O)c2cc(I)ccc2N(CCCN2CCN(C)CC2)C(=O)[C@@H]1c1ccc(Cl)cc1
3. O=S(=O)(/C=C/C=C/S(=O)(=O)c1ccccc1)c1ccccc1

Reply:
1. 17.8
2. 3.21
3. 3.53

====

Answer each item with its documented TGI.
# Test system: RXF 393 renal
# test-summary: NCI tumour cell line growth inhibition, 48 h
Numbers only, in µM.

compound: COc1cccc2c1C(=O)C(=O)c1c-2oc(=O)c2cc(C)cc(OC)c12
target-or-system: RXF 393 renal
TGI, µM: 42.8
//
compound: COc1ccccc1C1C2=C(COC2=O)OC(C)(C)Oc2cc3c(cc21)OCO3 (stereo not given)
target-or-system: RXF 393 renal
TGI, µM: 4.87
//
compound: Cc1cc(N(CCOS(C)(=O)=O)CCOS(C)(=O)=O)ccc1C=Nc1ccc(-c2csc(-c3ccccc3)n2)c(Cl)c1
target-or-system: RXF 393 renal
TGI, µM: 7.65
//
compound: Nc1ncc(-c2cnn(C3CCNCC3)c2)cc1-c1nc2ccccc2o1
target-or-system: RXF 393 renal
TGI, µM: 2.25

Switching to the query record.
Task item: Provide the documented TGI with RXF 393 renal as the system for "CC(=O)N1NC(c2ccccc2)=CC(=O)/C1=C/C(=O)c1ccccc1"
Reply: 83

====

Answer each item with its documented TGI.
# System: SK-MEL-2 melanoma
# test-summary: NCI tumour cell line growth inhibition, 48 h

compound: CCCCCCCCCCCCCCCCOP(=O)(O)OP(=O)(O)OCC1OC(n2ccc(N)nc2=O)CC1O (stereo unspecified)
target-or-system: SK-MEL-2 melanoma
measured-value: > 100 µM

compound: Cc1cc(C)c2c(=O)cc(-c3ccc(Cl)cc3)[nH]c2n1
target-or-system: SK-MEL-2 melanoma
measured-value: > 100 µM

The following compounds each have a reported value; give each one's TGI.
1. CCN(Cc1ccc(F)cc1)c1ccc(CO)c(Cl)c1
2. NC(=O)/N=C(\N)NC(=O)c1ccccc1
3. COc1cc(C(=O)C/C(CCC(=O)Nc2ccccc2[N+](=O)[O-])=N\NC(=O)C(N)=O)ccc1O
4. Cc1cc(Cl)nc(NC(=O)CSc2ccc(Cl)cc2)n1

Reply:
1: 13.9 µM; 2: > 100 µM; 3: > 100 µM; 4: > 100 µM

====

# System: NCI-H226 lung
# test-summary: NCI tumour cell line growth inhibition, 48 h
Answer each item with its documented TGI.
Numbers only, in µM.

molecule: O=C(CCl)N1CCCCC1C1(c2cc3ccccc3[nH]2)OCCO1 (stereo not given)
measured-value: 16.3

Switching to the query record.
Task item: Provide the documented TGI with NCI-H226 lung as the system for COC(=O)[C@@H]1O[C@]12C(CO[Si](C)(C)C(C)(C)C)OC(n1ccc(=O)[nH]c1=O)C2O[Si](C)(C)C(C)(C)C (stereo not given in full)
Reply: 30.7

====

# System: UACC-62 melanoma
# test-summary: NCI tumour cell line growth inhibition, 48 h; in the data active = GI50 below about 0.43 µM; inactive = the rest
The reply should name one outcome from active, inactive

compound: COc1ccc(-c2cc(-c3ccc(Nc4nc(Nc5ccc(Cl)cc5)nc(Nc5ccc(Cl)cc5)n4)cc3)no2)cc1
group-label: inactive

Task item: I'd appreciate the recorded outcome for "COc1ccc(-c2coc3ncnc(N)c23)cc1" from this test.
Reply: inactive

Task item: I'd appreciate the recorded outcome for "CS(=O)(=O)CCNCc1ccc(-c2ccc3ncnc(Nc4ccc(OCc5ccccc5)c(C(F)(F)F)c4)c3c2)o1" from this test.
Reply: inactive

Task item: I'd appreciate the recorded outcome for "O=S(=O)(NCCNc1cc(-c2cn(-c3ccccc3)nc2-c2cccc(O)c2)ccn1)c1ccc(C(F)(F)F)cc1" from this test.
Reply: inactive

Task item: I'd appreciate the recorded outcome for O=C1C2CC3C(CC2C(=O)[N]1[Sn]([c]1ccccc1)([c]1ccccc1)[c]1ccccc1)C1(Cl)C(Cl)=C(Cl)C3(Cl)C1(Cl)Cl (stereo unspecified) from this test.
Reply: active

Task item: I'd appreciate the recorded outcome for "COc1cc2c(c(OC)c1OC)-c1ccc(OC)c(=O)cc1[C@@H](NC(=O)CCl)CC2" from this test.
Reply: active

Task item: I'd appreciate the recorded outcome for "O=C1C=C(Nc2ccccc2)c2ncccc2C1=O" from this test.
Reply: active

Task item: I'd appreciate the recorded outcome for "O=C1C(=O)c2cc([N+](=O)[O-])ccc2-c2ccccc21" from this test.
Reply: inactive

====

# Test system: EKVX NSCLC
# test-summary: NCI tumour cell line growth inhibition, 48 h
Answer each item with its documented TGI.

molecule: O=C(NO)c1cccc(OCc2ccc(Br)cc2)c1
TGI: > 79.3 µM

molecule: COc1cccc(-c2nn(-c3ccccc3)cc2-c2ccnc(NCCNS(=O)(=O)c3ccc(C(F)(F)F)cc3)c2)c1
TGI: > 100 µM

molecule: CN1CCC23c4c5ccc(O)c4OC2C(=NN=C2CCC4(O)C6Cc7ccc(O)c8c7C4(CCN6C)C2O8)CCC3(O)C1C5 (stereo not drawn)
TGI: > 100 µM

The following molecules each have a reported value; give each one's TGI.
1. CC(=O)N1NC(c2ccccc2)=CC(=O)/C1=C/C(=O)c1ccccc1
2. COC(=O)/C=C\c1ccc2c(c1)CC1(C2)Cc2ccc(/C=C/C(=O)OC)cc2C1 (stereo not drawn)
3. CCOC(=O)[C@H](CSSc1ncnc2cc[nH]c12)NC(=O)[C@@H](C)c1ccc2cc(OC)ccc2c1
4. N=c1ccn2c(n1)OC1C(OP(=O)(O)O)C(CO)OC12 (stereo not drawn)
5. CSc1nc(NC2OCC(OC(C)=O)C(OC(C)=O)C2OC(C)=O)c(N=CC=Nc2c(NC3OCC(OC(C)=O)C(OC(C)=O)C3OC(C)=O)nc(SC)n(C)c2=O)c(=O)n1C (stereo not drawn)
6. Cc1cc(S(=O)(=O)Nc2nc(N)n(-c3cnc4ccccc4n3)n2)c(S)cc1Cl

Reply:
> 100 µM
> 31.6 µM
> 100 µM
> 100 µM
> 100 µM
> 100 µM

The following molecules each have a reported value; give each one's TGI.
1. CC[O-].CC[O-].[O-]c1ccccc1C=Nc1ccccc1.[O-]c1ccccc1C=Nc1ccccc1.[Ti+4]
2. CN1CCN(C(=O)c2ccc(NC(=O)Nc3ccc(N(C)c4ccnc(Nc5ccc(CS(C)(=O)=O)cc5)n4)cc3)cc2)CC1
3. CC(=O)O[C@H](C[C@H](C(C)C)N(C)C(=O)[C@@H](NC(=O)[C@H]1CCCCN1C)C(C)C)c1nc(C(=O)N[C@@H](Cc2ccccc2)C[C@H](C)C(=O)O)c(C)s1
4. c1cncc(C2c3[nH]c4ccccc4c3CCN2CCCN2CCCCC2)c1 (stereo not drawn)

Reply:
1. > 100 µM
2. > 25 µM
3. > 25 µM
4. > 100 µM
